Origin of measurements: patent US20240247080A1

- subjectOfTest: human GLP-1 receptor (human, UniProt P43220 24-463)
- protocolDetails: cell-based or functional assay
Starred links: 1 amine or outer side, 2 acyl side, 3 side chain; linkers in the order of their positions; H or OH if unused. Non-standard residues stand in square brackets, D forms with d. Groups on a side chain read outwards from the residue. No end group written: not given here. *: point of attachment. C18 diacid = O=C(O)CCCCCCCCCCCCCCCCC(=O)*; γGlu = O=C(O)[C@H](CCC(=O)[*:2])N[*:1]; AEEA = NCCOCCOCC(=O)O; Aib = CC(C)(N)C(=O)O
readout: EC50, CreLuc assay, 100% hP (nM)

binder="Y[Aib]EGTFTSDYSI[Aib]LEKQAQ[Aib]AFVQWLIKGGPSYYASLRHYYNWLTRQRY-NH2 (not fully specified (residue 28); also: TFA salt) [Compound 59]" endpointunit=nM recordedmeasurement=8.81
binder="Y[Aib]EGTFTSDYSI[Aib]LEKQAQ[Aib]AFVEWLIKGGPSSGAS[Aib]RHYYNR[Aib]TRQRY-NH2 (not fully specified (residue 28); also: TFA salt) [Compound 13]" endpointunit=nM recordedmeasurement=0.92
binder="Y[Aib]EGTFTSDYSI[Aib]LEKQAQ[Aib]EFVEWLIK([AEEA-AEEA-γGlu-γGlu-γGlu-γGlu-C18 diacid])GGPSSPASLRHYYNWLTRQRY-NH2 (also: TFA salt) [Compound 56]" endpointunit=nM recordedmeasurement=8.97
binder="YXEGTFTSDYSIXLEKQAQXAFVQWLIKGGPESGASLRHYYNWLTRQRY (Aib at 2, 13, 20; K28 side chain: C18DA-gGlu-gGlu-gGlu-gGlu-gGlu; C-terminal NH2) [Compound 53]" endpointunit=nM recordedmeasurement=3.46
binder="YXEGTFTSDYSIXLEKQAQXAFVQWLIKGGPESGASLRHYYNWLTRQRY (Aib at 2, 13, 20; K28 side chain: C20DA-gGlu-gGlu-gGlu-gGlu-gGlu-OEG-OEG; C-terminal NH2) [Compound 32]" endpointunit=nM recordedmeasurement=4.74
